- Test system: UACC-62
- ASSAY_REMARKS: NCI tumour cell line growth inhibition, 48 h
The source made the active and inactive calls. No stated cut-off is given here; in the data, active = GI50 up to about 1.1 µM and inactive = higher.
GI50 reference
PARAMETER: GI50

MOLECULE	PARAMETER	REPORTED_RESULT
[N-]=[N+]=NCc1cccc(Nc2cc(=O)[nH]c(=O)[nH]2)c1	GI50	> 100 µM (inactive)
Cn1c(=O)c2c(ncn2CCCCn2ccnc2[N+](=O)[O-])n(C)c1=O	GI50	> 100 µM (inactive)
CC(=O)OCC1OC(n2c3c(cc(C#N)c2=S)CCCCCC3)C(OC(C)=O)C(OC(C)=O)C1OC(C)=O (configuration not stated)	GI50	54.7 µM (inactive)
Cc1cccc(Nc2cn(COCc3ccccc3)c(=O)[nH]c2=O)c1	GI50	> 100 µM (inactive)
Cc1oc(N)c(S(=O)(=O)c2cc3ccccc3[n+]([O-])c2N)c1C	GI50	> 100 µM (inactive)
COc1ccc2nc3cc(Cl)ccc3c(NCCCNCc3cc(OC)c(OC)c(OC)c3)c2c1	GI50	1.91 µM (inactive)
CC1CC[C@@]2(OC1)OC1C[C@H]3[C@@H]4CC[C@H]5CC(OC6OC(CO)C(OC7OC(CO)C(O)C(O)C7OC7OC(CO)C(O)C(O)C7O)C(O)C6O)CCC5(C)[C@H]4CCC3(C)C1[C@@H]2C (some centres not stated)	GI50	8.95 µM (inactive)

----------
- Tested on: A498
- ASSAY_REMARKS: NCI tumour cell line growth inhibition, 48 h
Activity calls are given as the source filed them. Rule as the data show it: active = GI50 up to about 1.1 µM and inactive = higher.
PARAMETER: GI50

In [3]: df
Out[3]:
                                   compound  tested_target      reported_result
0  O=C(NCCCNC(=O)c1ccc2cc(O)c(O)cc2c1)c1ccc2cc(O)c(O)cc2c1           A498   63.4 µM (inactive)
1  CC1(C)OC(CCO)CN1C(=O)OCc1ccccc1 (stereo not given)           A498  > 100 µM (inactive)
2              NCCCNC1(c2cc3ccccc3s2)CCCCC1           A498   2.72 µM (inactive)
3  COc1cc(/C=C/C(=O)Oc2ccc(NC(C)=O)cc2)ccc1C(=O)OCc1ccccc1           A498   60.3 µM (inactive)
4                    O=P(O)(OCC(O)O)OCC(O)O           A498  > 100 µM (inactive)

----------
- Test system: NCI-H460
- ASSAY_REMARKS: NCI tumour cell line growth inhibition, 48 h
The source made the active and inactive calls. No stated cut-off is given here; in the data, active = GI50 up to about 1.1 µM and inactive = higher.
Possible outcomes: active, inactive

COMPOUND	GROUP
O=c1c(O)c(-c2ccc(O)cc2O)oc2cc(O)cc(O)c12 [MORIN]	inactive
O=C(CCCN1CCC2(CC1)/C(=N/C1CCCCC1)NC(=O)N2c1ccccc1)c1ccc(F)cc1	inactive
CN(C)c1ccc(-c2c(C#N)c(O)n(NS(=O)(=O)c3ccccc3)c(=O)c2C#N)cc1	inactive
O=C(Nc1ccc(Cl)c(C(F)(F)F)c1)C(=O)c1c(O)c2ccccc2oc1=O	inactive
COc1cc(/C=N/n2c(-c3ccccc3)n[nH]c2=O)cc(OC)c1OC	active
C=C(C)C1Cc2c(cc3c(c2O)c(=O)c2ccccc2n3C)O1 (centres undefined)	inactive
CC1CN=C(N(C(=O)Nc2ccc(Cl)c(Cl)c2)c2ccccc2)S1 (centres undefined)	inactive
CC1=C2CC(C)(C)CC(=O)C2(C)CCC1=O (centres undefined)	inactive
CC1=C(C(=O)Nc2c(C)cccc2C)C(c2ccc3c(c2)OCO3)C(C(=O)Nc2c(C)cccc2C)=C(C)N1	inactive
CN(C)C(=S)SCc1ccccc1	inactive
CCCCCCCCCC[C@@H](O)[C@H]1CC[C@@H]([C@H]2CC[C@H]([C@H](O)CCCCCCCCCC[C@@H]3CC(CC(C)=O)C(=O)O3)O2)O1 (some centres undefined)	active
CC1CCC2(CC1)NC1=C(CC(C)CC1)C1=C2CC(C)CC1 (centres undefined)	inactive
O=C(NCCNCCNC(=O)c1cc(-c2ccccc2)nc2ccccc12)c1cc(-c2ccccc2)nc2ccccc12	inactive
COc1ccc(/N=[N+](\[O-])c2ccc(OC)cc2)cc1	inactive
CCCCCCCCCCCCCCCCOCC(O)CO (centres undefined)	inactive
COc1ccc2c(c1)CCC(CN1CCN(CCOC(c3ccc(F)cc3)c3ccc(F)cc3)CC1)=C2	inactive
O=C1c2cc([N+](=O)[O-])sc2C(=O)c2cc([N+](=O)[O-])sc21	inactive
CN(CCN1C(=O)c2cccc3cccc(c23)C1=O)CCN1C(=O)c2cccc3cccc(c23)C1=O	inactive
COc1ccccc1C1C(C(=O)O)=C(CO)Oc2cc3c(cc21)OCO3 (centres undefined)	inactive
COC(=O)c1c(CC#N)cccc1CC#N	inactive
CCCCCCCCCCCCC(O)C1CCC(C(O)CCCCC(O)CCCCCC2CC(CC(C)=O)C(=O)O2)O1 (centres undefined)	inactive
CCC(C(C)N1CC(=O)NC(=O)C1)N1CC(=O)NC(=O)C1 (centres undefined)	active
Cc1ccc(C(=O)N/N=C(\N=N\c2cccc([N+](=O)[O-])c2)c2ccc(N(CCC#N)CCC#N)cc2C)cc1	inactive
CC1CCCCc2nc3c(c(=O)n21)CCCC3 (centres undefined)	inactive
Cn1c(=O)c2c(ncn2CCCCn2ccnc2[N+](=O)[O-])n(C)c1=O	inactive
CCCCc1ccc(-n2c3nc(=O)n(C)c(=O)c-3nc3ccccc32)cc1	inactive
CCCCN(CCCC)C(=O)C(=O)C(C#N)c1ccc(C)cc1 (centres undefined)	inactive
[O-][n+]1ccccc1S [PYRITHIONE ZINC]	inactive
Cc1ccc2c(c1)/C(=N/Nc1ccccc1[N+](=O)[O-])C(=O)N2	inactive

----------
- Test system: 786-0
- ASSAY_REMARKS: NCI tumour cell line growth inhibition, 48 h
Calls of active or inactive are those of the source. Cut-off read from the data, not from the text of the source: active = GI50 up to about 1.1 µM and inactive = higher.
PARAMETER: GI50

>>> print(df.to_string())
                            molecule_smiles  parameter      reported_result
0  CN(C)c1ccc(-c2c(C#N)c(O)n(NS(=O)(=O)c3ccccc3)c(=O)c2C#N)cc1       GI50  > 100 µM (inactive)
1  COc1ccc2c(c1)[n+]([O-])c(C(=O)C/C(=N/NC(=O)C[N+](C)(C)C)C(=O)Nc1cccc(C)c1C)c(C)[n+]2[O-]       GI50  > 100 µM (inactive)
2  CCCCC/C=C\C=C1\C(=O)C=C[C@@H]1C/C=C\CCCC(=O)O       GI50   3.21 µM (inactive)
3  O=c1c2cc(I)ccc2nc(-c2cccs2)n1-c1ccc(O)cc1       GI50   16.3 µM (inactive)
4  NC1=NS(=O)(=O)Nc2nc(-c3ccc(Cl)cc3)c(-c3ccc(Cl)cc3)nc21       GI50  > 100 µM (inactive)
5  O=C(NCCCCCCCCNC(=O)c1cnc2ccccc2n1)c1cnc2ccccc2n1       GI50  > 100 µM (inactive)

----------
- Tested on: XF498
- ASSAY_REMARKS: NCI tumour cell line growth inhibition, 48 h
The source made the active and inactive calls. Cut-off read from the data, not from the text of the source: active = GI50 up to about 1.1 µM and inactive = higher.
PARAMETER: GI50

                                   compound      reported_result
0  COc1cc(/C=C/C(=O)Oc2ccc(NC(C)=O)cc2)ccc1C(=O)OCc1ccccc1   25.6 µM (inactive)
1  CC(C)(C)C1=NO[C@H]2[C@@H](NC(=O)c3ccccc3)CC[C@@H]12  > 100 µM (inactive)
2  CCc1ccccc1NC(=O)C(=O)C(C(=O)c1ccc(OC)cc1)c1ccc(OC)cc1 (configuration not stated)  > 100 µM (inactive)
3  CC(=O)O[C@H]1CC[C@@]2(C)C(=CC[C@@H]3C2CC[C@]2(C)C(=O)NC(=O)CC32)C1 (some centres not stated)  > 100 µM (inactive)
4                   C1COCCN1.S=C(S)N1CCOCC1   1.92 µM (inactive)
5  CC1C=CC(=O)C(n2cc(F)c(=O)[nH]c2=O)O1 (configuration not stated)   15.1 µM (inactive)
6  CCCCc1ccc(-n2c3nc(=O)n(C)c(=O)c-3nc3ccccc32)cc1   18.2 µM (inactive)

----------
- Test system: NCI/ADR-RES
- ASSAY_REMARKS: NCI tumour cell line growth inhibition, 48 h
Active and inactive are the calls of the source. No stated cut-off is given here; in the data, active = GI50 up to about 1.1 µM and inactive = higher.
Possible outcomes: class 1 = active, class 0 = inactive

>>> df
                                    compound    group
 0  COC(=O)c1c(O)ccc2[nH]c3c(O)c4ccccc4cc3c12  class 0
 1  CC1=C2CC(C)(C)CC(=O)C2(C)CCC1=O (configuration not stated)  class 0
 2  Cc1c2c(n(CCc3ccccc3)c1C)N(C)N=C(C#N)S2(=O)=O  class 0
 3                      CN(C)C(=S)SCc1ccccc1  class 0
 4                   O=Cc1c(Br)[nH]c2ccccc12  class 0
 5  Cc1ccc2c(c1)/C(=N/Nc1ccccc1[N+](=O)[O-])C(=O)N2  class 0
 6  [N-]=[N+]=NCc1cccc(Nc2cc(=O)[nH]c(=O)[nH]2)c1  class 0
 7                       Cc1c(Cl)nc(Cl)nc1Cl  class 0
 8  CC1C/C(=C\c2ccc(O)c(O)c2)C(=O)/C(=C/c2ccc(O)c(O)c2)C1 (configuration not stated)  class 0
 9  CN(C)CCn1c(=O)c2ccc3c4c(nn3CCN(C)C)c3cc(O)ccc3n(c1=O)c24  class 1
10          COc1cc(C)c2c(=O)c3ccccc3n(C)c2c1  class 0
11  O=C(Cc1csc2[n+]1C(=O)/C(=C/c1ccc(Cl)cc1)S2)Nc1ccccc1  class 0
